Recorded MIC values for a group of compounds are listed next.
system: ESBL-producing P. aeruginosa; test: MIC by serial dilution, ESBL P. aeruginosa; assay type: cell-based; details: Pseudomonas aeruginosa, read-out: Minimum inhibitory concentration (MIC), P. aeruginosa
Answer with a number only, understood to be in µg/mL.

1. COc1cc(C=Nc2ccccc2Br)ccc1O [SB-2] : 250
2. COc1cc(C=Nc2ccc(C)cc2Cl)ccc1O [SB-3] : 125
3. COc1cc(C=Nc2ccc([N+](=O)[O-])cc2)ccc1O [SB-1] : 125
4. COc1cc(C=Nc2cccc(O)c2)ccc1O [SB-4] : 125

Read the next record carefully.
# input Would you kindly share the measured MIC for COc1cc(C=Nc2ccc(Cl)cc2Cl)ccc1O [SB-5] ?
# output 125

* * *

assay: Solubility in DMSO; assay type: physicochemical
endpointName: Solubility in DMSO

Completed entries (count: 4):
1. COc1cc(C=Nc2ccc(Cl)cc2Cl)ccc1O : Soluble in DMSO
2. COc1cc(C=Nc2cccc(O)c2)ccc1O : Soluble in DMSO
3. COc1cc(C=Nc2ccccc2Br)ccc1O : Soluble in DMSO
4. COc1cc(C=Nc2ccc(C)cc2Cl)ccc1O : Soluble in DMSO

# input Entry COc1cc(C=Nc2ccc([N+](=O)[O-])cc2)ccc1O has what Solubility in DMSO?
# output Soluble in DMSO

* * *

experiment: Brine shrimp lethality; details: Artemia salina (brine shrimp), in vivo
endpointName: IC50 at 24 h (µg/mL)
The answer is to be given in µg/mL; state only the numeric part.

# input So what's the measured IC50 at 24 h for this one? COc1cc(C=Nc2ccc(Cl)cc2Cl)ccc1O
# output 45.7

# input Which IC50 at 24 h value belongs to COc1cc(C=Nc2ccc([N+](=O)[O-])cc2)ccc1O ?
# output 50.5
